- MEASUREMENT_PROTOCOL: activity coefficient (dimensionless); of the first substance listed, at infinite dilution; xn = mol fraction of the nth substance listed
- PROTOCOL_CONDITIONS: 303.1 K; 101 kPa; Liquid; Chromatography; x1 = 0
Catalogue of activity coefficient readings, one per entry.
REPORTED_ENDPOINT: activity coefficient

molecule="Cc1ccccc1C [1,2-dimethylbenzene] + CCCCC[n+]1ccccc1.O=S(=O)([N-]S(=O)(=O)C(F)(F)F)C(F)(F)F" quantitative_readout=1.57
molecule="CCc1ccccc1 [ethylbenzene] + CCCCC[n+]1ccccc1.O=S(=O)([N-]S(=O)(=O)C(F)(F)F)C(F)(F)F" quantitative_readout=1.93
molecule="C=CCCCCCCCC [1-decene] + CCCCC[n+]1ccccc1.O=S(=O)([N-]S(=O)(=O)C(F)(F)F)C(F)(F)F" quantitative_readout=26.4
molecule="CCCCCCCCC [nonane] + CCCC[n+]1ccccc1.O=S(=O)([N-]S(=O)(=O)C(F)(F)F)C(F)(F)F" quantitative_readout=52.3

The reported numbers originate from the NIST ThermoML archive (doi:10.1016/j.jct.2010.06.009).
